- Test system: DLD-1
- Test Summary: NCI tumour cell line growth inhibition, 48 h
The source made the active and inactive calls. Cut-off read from the data, not from the text of the source: active = GI50 up to about 1.1 µM and inactive = higher.
Outcome (select one): yes (1) for active, no (0) for inactive

Examples with answers:
{"Molecule": "COc1ccc(-c2cc3ccccc3[nH]c2=O)cc1OC", "Group": "no (0)"}
{"Molecule": "O=C1C2=C(c3ccccc31)C(c1cccc(Cl)c1)NC(S)=N2 (stereo not given)", "Group": "no (0)"}
{"Molecule": "COc1cccc2nc3cc(C)c(C)cc3nc12", "Group": "no (0)"}
{"Molecule": "CC(C)C1COC(C(C)(C)C2=N[C@@H](C(C)C)CO2)=N1 (stereo not given in full)", "Group": "no (0)"}
{"Molecule": "COc1ccc(C(=O)Nc2ccn(CCOC(=O)c3ccc(OC)cc3)c(=O)n2)cc1", "Group": "no (0)"}
{"Molecule": "CCC(C)COC(=O)c1ccc(/N=C\\c2ccc(/C=N/c3ccc(C(=O)OCC(C)CC)cc3)cc2)cc1 (stereo not given)", "Group": "no (0)"}

Please indicate how the test categorized O=C(/C=C/c1cccc([N+](=O)[O-])c1)c1ccc([N+](=O)[O-])cc1 .
no (0)

Outcome logged for CC1=C[C@H]2C[C@@]3(C)O[C@@H]([C@]4(C)CC[C@H]([C@@H](C)C(=O)O)OO4)CC3C(C)(C)[C@H]2CC1 (stereo not given in full) in this assay:
yes (1)

Test call, this molecule: CCOC(C)OC1CC(n2cc(C)c(=O)[nH]c2=O)OC1CO (stereo not given)
no (0)

Could you check what this test reported for COc1ccc([C@H]2[C@@H]3CCc4ccccc4C3=NN2C(N)=S)cc1OC ?
no (0)

* * *

- System: EKVX
- Test Summary: NCI tumour cell line growth inhibition, 48 h
Calls of active or inactive are those of the source. No stated cut-off is given here; in the data, active = GI50 up to about 1.1 µM and inactive = higher.
Recorded GI50 by entry

Guide cases for GI50, answers given:
{"Molecule": "COc1ccc(NC(=S)Nc2cc(C)cc(C)n2)cc1", "GI50": "> 100 µM (inactive)"}
{"Molecule": "S=c1nc(Nc2ccccc2)c2c3c(sc2[nH]1)CCCC3", "GI50": "2.32 µM (inactive)"}
{"Molecule": "COc1ccc(C2NCCc3c2[nH]c2ccccc32)cc1 (stereo unspecified)", "GI50": "> 100 µM (inactive)"}
{"Molecule": "O=C1CSC2=NC3=C(COC/C3=C\\c3ccc(Br)cc3)C(c3ccc(Br)cc3)N12 (stereo unspecified)", "GI50": "> 100 µM (inactive)"}

Entry CCCCCCCCCCCCCC(=O)OCC1OC(=O)C(O)C1O (stereo unspecified) , system EKVX: what GI50 was measured?
> 100 µM (inactive)

EKVX / GI50 / Cc1ccc(Cc2cc(N3CCN(c4cccc(Cl)c4)CC3)nnc2C)cc1 : value?
34.4 µM (inactive)

* * *

- Test system: U-251
- Test Summary: NCI tumour cell line growth inhibition, 48 h
Activity calls are given as the source filed them. No stated cut-off is given here; in the data, active = GI50 up to about 1.1 µM and inactive = higher.
Please answer using one outcome listed in yes (active), no (inactive)

# fetch the recorded call for COc1ccc(C2C(C#N)=C(S)N(C3OC(COC(C)=O)C(OC(C)=O)C(OC(C)=O)C3OC(C)=O)C(c3ccccc3)=C2C(C)=O)cc1 (centres undefined) here
no

* * *

- System: OVCAR-4
- Test Summary: NCI tumour cell line growth inhibition, 48 h
The source made the active and inactive calls. Rule as the data show it: active = GI50 up to about 1.1 µM and inactive = higher.
Quantity Kind: GI50

{"Compound": "COc1cc([C@@H]2C3C(=O)c4ccccc4C3[C@@H](c3cc(OC)c(OC)c(OC)c3)C23Cc2ccccc2C3=O)cc(OC)c1OC (stereo partly specified)", "Assay System": "OVCAR-4", "Quantity Kind": "GI50", "Recorded Measurement": "> 100 µM (inactive)"}
{"Compound": "COC(=O)CC(=O)NCC1=CCC(=O)CC1", "Assay System": "OVCAR-4", "Quantity Kind": "GI50", "Recorded Measurement": "> 100 µM (inactive)"}

What is its GI50 for OVCAR-4? Entry: NC(=O)N/N=C(/CC1C(=O)Oc2ccccc21)c1ccccc1O (stereo unspecified)
41.7 µM (inactive)

API: value(readout=GI50, system=OVCAR-4) for record N#C/C(=C\Nc1ccccn1)C(=O)c1ccco1
> 100 µM (inactive)

State its GI50 on OVCAR-4: COC(=O)C1=Nc2c(C)nn(-c3ccccc3)c2N=C(c2ccc(C)cc2)C1
> 10 µM (inactive)

Entry CCCn1c2c(c3ccccc3c1=O)C(=O)c1ccccc1-2 , system OVCAR-4: what GI50 was measured?
> 100 µM (inactive)

* * *

- Test system: RXF 631
- Test Summary: NCI tumour cell line growth inhibition, 48 h
Calls of active or inactive are those of the source. Rule as the data show it: active = GI50 up to about 1.1 µM and inactive = higher.
Quantity Kind: GI50

{"Compound": "O=C1N2Cc3c4ccc5c3CN3C(=O)N6Cc7c(ccc(c7CN1C6(c1ccccc1)C23c1ccccc1)OCCOCCOc1cc(Br)c(Br)cc1OCCOCCO4)OCCOCCOc1cc(Br)c(Br)cc1OCCOCCO5 (stereo not given)", "Assay System": "RXF 631", "Quantity Kind": "GI50", "Recorded Measurement": "> 100 µM (inactive)"}

Field request: GI50 | item: CCOc1ccc(/N=N/c2c(-c3ccccc3)nn(C(=O)CC(=O)Nc3cccc(C)c3)c2-c2ccccc2)cc1
27.5 µM (inactive)

* * *

- System: MDA-N
- Test Summary: NCI tumour cell line growth inhibition, 48 h
The source made the active and inactive calls. No stated cut-off is given here; in the data, active = GI50 up to about 1.1 µM and inactive = higher.
Readings of GI50 for the listed compounds

Answered examples (3):
{"Compound": "Cn1c2ccccc2c(=O)c2cccc(C(=O)NC(CCCNC(=N)N)C(=O)O)c21 (configuration not stated)", "Assay System": "MDA-N", "Recorded Measurement": "> 100 µM (inactive)"}
{"Compound": "O=C1Nc2ccccc2/C1=N/Nc1ncccc1[N+](=O)[O-]", "Assay System": "MDA-N", "Recorded Measurement": "27.1 µM (inactive)"}
{"Compound": "Cc1oc2c(c1C)S(=O)(=O)C(C#N)C(c1ccccc1)N2 (configuration not stated)", "Assay System": "MDA-N", "Recorded Measurement": "29 µM (inactive)"}

Sample CCCCCCCCCCCC[C@@H](O)[C@H]1CCC([C@H](O)CCCCC(=O)CCCCCCCC2=C[C@H](C)OC2=O)O1 (some centres not stated) — what was its GI50?
> 35.2 µM (inactive)

For CO[C@@H]1C[C@H]2[C@@H]3CC[C@H]([C@@H](C)COC(C)=O)[C@@]3(C)CC[C@@H]2[C@@]2(C)CC[C@H]3C[C@]312 , what is its reported GI50?
16.9 µM (inactive)

So what's the measured GI50 for this one? CCn1c(=O)c2c(=O)[nH][nH]c2c2ccccc21
> 100 µM (inactive)

Fill in: GI50 of O=C1CC(n2cccc2)c2cc(Br)sc21 (configuration not stated) is ___
55.6 µM (inactive)

* * *

- Tested on: SF-539
- Test Summary: NCI tumour cell line growth inhibition, 48 h
Active and inactive are the calls of the source. Rule as the data show it: active = GI50 up to about 1.1 µM and inactive = higher.
The reply should be one of these categories: class 1 for active, class 0 for inactive

{"Compound": "COc1cc(-c2c3c(cc4c2OCO4)[C@@H](Nc2ccc(-c4ccc(-c5ccc(N[C@@H]6c7cc8c(cc7C(c7cc(OC)c(O)c(OC)c7)[C@H]7C(=O)OC[C@H]67)OCO8)cc5)cc4)cc2)[C@H]2COC(=O)[C@@H]2C3)cc(OC)c1O (stereo partly specified)", "Group": "class 1"}
{"Compound": "C=C(CO)[C@H]1CC/C(C)=C/CC/C(C)=C/C/C=C(\\C)[C@H](O)C1", "Group": "class 0"}
{"Compound": "Cc1ccccc1OCC(COC(=O)Nc1ccccc1)OC(=O)Nc1ccccc1 (stereo unspecified)", "Group": "class 0"}
{"Compound": "COc1cc(C(=O)n2c3ccc(Br)cc3c3nc4ccccc4nc32)cc(OC)c1OC", "Group": "class 0"}
{"Compound": "CC(=O)C1C(=O)NC(=O)C1=O (stereo unspecified)", "Group": "class 0"}
{"Compound": "O=C1C(Cl)C(c2cccc(Cl)c2)N1c1ccc(-n2c(S)nc3ccccc3c2=O)cc1 (stereo unspecified)", "Group": "class 0"}
{"Compound": "O=C(O)C(Br)C(Br)c1ccccc1[N+](=O)[O-] (stereo unspecified)", "Group": "class 0"}
{"Compound": "O=C1C=CC(=O)N1Nc1ccc([N+](=O)[O-])cc1[N+](=O)[O-]", "Group": "class 0"}
{"Compound": "CC(=O)CC(=O)N1CCSC1=S", "Group": "class 0"}
{"Compound": "CNC(=O)CN(C)C(=O)CCC(=O)N(C)C", "Group": "class 0"}

What call does the record list for CCNC(=O)/C=C/CCC#Cc1ccc(-c2ccc(-c3cccs3)s2)s1 ?
class 0

Record request — test call for CC1(C)OC(=C(C#N)C#N)C(C#N)=C1/C=C/c1ccncc1
class 0

Tell me the recorded outcome of this test for CO[C@@H]1C[C@H]2[C@@H]3CC[C@H]([C@@H](C)COC(C)=O)[C@@]3(C)CC[C@@H]2[C@@]2(C)CC[C@H]3C[C@]312 .
class 0

Please let me know the test result on file for O=C1Nc2ccccc2/C1=N/Nc1ncccc1[N+](=O)[O-] .
class 0

Record request — test call for N#CC(N)(C(=O)C(=O)NCCCNC(=O)C(=O)C(N)(C#N)c1ccc(Cl)cc1)c1ccc(Cl)cc1 (stereo unspecified)
class 0

Please state the recorded outcome for this compound: CC(C)(C)[Si](C)(C)OCCc1ccccc1C1CC2(S(=O)(=O)c3ccccc3)ON1CC2S(=O)(=O)c1ccccc1 (stereo unspecified)
class 0

Kindly provide the recorded test outcome for the following compound: COC(=O)C1=C(C)NC(C)=C(C(=O)OC)C1c1ccc(N=O)cc1
class 0

Record request — test call for COc1cc2c(cc1OC)C(=O)/C(=C/c1ccc(O)cc1)CC2
class 0

Field: outcome | Entry: Cc1cccc2cc3ccc4ccccc4c3cc12
class 0

Hi team, can someone confirm the assay call for C=CCN1C(=O)C=C(c2ccccc2)n2ncc3cccc1c32 ?
class 0

Each compound tested received a call. Report the one for CC1Oc2c(c(=O)oc3ccccc23)[C@@]1(C)CC1C[C@H](C)C(=O)O1 (stereo partly specified) .
class 0
